Molecular target: T1, GST-RGS12 PDZ domain fusion protein (human, UniProt O14924 17-85)
T1 construct: also called human regulator of G-protein signalling 12; not shown: glutathione S-transferase encoded by vector pGEX-3X (Pharmacia)
T1 sequence: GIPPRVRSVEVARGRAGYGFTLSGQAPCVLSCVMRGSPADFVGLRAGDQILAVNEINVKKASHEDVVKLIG
Test: A/G assays
Ends that are not written are not given here. * marks the point of attachment. Biotin = O=C1N[C@H]2[C@H](CS[C@H]2CCCCC(=O)*)N1
Property Measured: binding result

Binder	Property Measured	Result
Biotin-GTSDMKDLVGNIEQNEHSVI (Only the last four residues are seen in the excerpts) [Mannose receptor C-terminal peptide AA31L]	binding result	no binding
Biotin-SVFSIPTLWSPWPPSSSSQL (also called CD3η; CD3-eta) [CD3n C-terminal peptide AA4L, biotinylated]	binding result	no binding
Biotin-QFMTADETRNLQNVDMKIGV (also called CD44 (long form)) [CD44 C-terminal peptide AA9L, biotinylated]	binding result	no binding
Biotin-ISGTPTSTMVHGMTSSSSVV [Clasp-2 C-terminal peptide AA2L, biotinylated]	binding result	no binding
